# experiment.notes: AUC (0-t) in Beagle dog at 2 mg/kg,iv measured upto 24 hrs
# Type: ADME, organism-based, Canis lupus familiaris
# Set-up: time < 24 hrs, dose 2 mg/kg, route iv
# protocol.conditions: in vivo
property.label: AUC(0-t) at 24 h
A complete answer gives the number and then names the unit.

Would you kindly share the measured AUC(0-t) at 24 h for CC(=O)O[C@@]12CO[C@@H]1C[C@H](O)[C@@]1(C)C(=O)[C@H](O)C3=C(C)[C@@H](OC(=O)[C@H](OC(=O)CCC(=O)NCCCC[C@H](NC(=O)CC[C@@H](NC(=O)[C@H](C)NC(=O)/C=C/c4ccc(F)cc4Cl)C(N)=O)C(=O)O)[C@@H](NC(=O)OC(C)(C)C)c4ccccc4)C[C@@](O)([C@@H](OC(=O)c4ccccc4)[C@H]21)C3(C)C ?
5900 ng·h/mL

* * *

# experiment.notes: Tmax in female Beagle dog at 4 mg/kg,iv measured upto 24 hrs
# Format: ADME, organism-based, Canis lupus familiaris
# protocol.conditions: in vivo
property.label: Tmax (min)
Give the quantity in min, number only.

Would you kindly share the measured Tmax for CC(=O)O[C@@]12CO[C@@H]1C[C@H](O)[C@@]1(C)C(=O)[C@H](O)C3=C(C)[C@@H](OC(=O)[C@H](OC(=O)CCC(=O)NCCCC[C@H](NC(=O)CC[C@@H](NC(=O)[C@H](C)NC(=O)/C=C/c4ccc(F)cc4Cl)C(N)=O)C(=O)O)[C@@H](NC(=O)OC(C)(C)C)c4ccccc4)C[C@@](O)([C@@H](OC(=O)c4ccccc4)[C@H]21)C3(C)C ?
30

* * *

# experiment.notes: AUC (0-infinity) in male Beagle dog at 2 mg/kg,iv measured upto 24 hrs
# Format: ADME, organism-based, Canis lupus familiaris
# Design: time < 24 hrs, dose 2 mg/kg, route iv
# protocol.conditions: in vivo
property.label: AUC(0-inf) (ng·h/mL)
Give the quantity in ng·h/mL, number only.

Would you kindly share the measured AUC(0-inf) for CC(=O)O[C@@]12CO[C@@H]1C[C@H](O)[C@@]1(C)C(=O)[C@H](O)C3=C(C)[C@@H](OC(=O)[C@H](OC(=O)CCC(=O)NCCCC[C@H](NC(=O)CC[C@@H](NC(=O)[C@H](C)NC(=O)/C=C/c4ccc(F)cc4Cl)C(N)=O)C(=O)O)[C@@H](NC(=O)OC(C)(C)C)c4ccccc4)C[C@@](O)([C@@H](OC(=O)c4ccccc4)[C@H]21)C3(C)C ?
4890

* * *

# experiment.notes: Volume of distribution at steady state in male rat at 4 mg/kg,iv measured upto 24 hrs
# Type: ADME, organism-based
# protocol.conditions: in vivo, read-out: Vdss
property.label: Vd (L/kg)
Give the quantity in L/kg, number only.

Would you kindly share the measured Vd for CC(=O)O[C@@]12CO[C@@H]1C[C@H](O)[C@@]1(C)C(=O)[C@H](O)C3=C(C)[C@@H](OC(=O)[C@H](OC(=O)CCC(=O)NCCCC[C@H](NC(=O)CC[C@@H](NC(=O)[C@H](C)NC(=O)/C=C/c4ccc(F)cc4Cl)C(N)=O)C(=O)O)[C@@H](NC(=O)OC(C)(C)C)c4ccccc4)C[C@@](O)([C@@H](OC(=O)c4ccccc4)[C@H]21)C3(C)C ?
0.073

* * *

# experiment.notes: Plasma protein binding in rat plasma incubated for 4 hrs
# Format: ADME, cell-free
# protocol.conditions: read-out: PPB (converted)
property.label: fraction unbound at 4 h
Enter the number alone.

Would you kindly share the measured fraction unbound at 4 h for CC(=O)O[C@@]12CO[C@@H]1C[C@H](O)[C@@]1(C)C(=O)[C@H](O)C3=C(C)[C@@H](OC(=O)[C@H](OC(=O)CCC(=O)NCCCC[C@H](NC(=O)CC[C@@H](NC(=O)[C@H](C)NC(=O)/C=C/c4ccc(F)cc4Cl)C(N)=O)C(=O)O)[C@@H](NC(=O)OC(C)(C)C)c4ccccc4)C[C@@](O)([C@@H](OC(=O)c4ccccc4)[C@H]21)C3(C)C ?
0.007

* * *

# experiment.notes: AUC (0-t) in rat at 8 mg/kg,iv measured upto 24 hrs
# Assay type: ADME, organism-based
# Parameters: dose 8 mg/kg, time < 24 hrs, route iv
# protocol.conditions: in vivo
property.label: AUC(0-t) at 24 h

Would you kindly share the measured AUC(0-t) at 24 h for CC(=O)O[C@@]12CO[C@@H]1C[C@H](O)[C@@]1(C)C(=O)[C@H](O)C3=C(C)[C@@H](OC(=O)[C@H](OC(=O)CCC(=O)NCCCC[C@H](NC(=O)CC[C@@H](NC(=O)[C@H](C)NC(=O)/C=C/c4ccc(F)cc4Cl)C(N)=O)C(=O)O)[C@@H](NC(=O)OC(C)(C)C)c4ccccc4)C[C@@](O)([C@@H](OC(=O)c4ccccc4)[C@H]21)C3(C)C ?
45800 ng·h/mL

* * *

# experiment.notes: MRT (0 to infinity) in female rat at 4 mg/kg,iv measured upto 24 hrs
# Type: ADME, organism-based
# protocol.conditions: in vivo
property.label: MRT inf (min)
Give the quantity in min, number only.

Would you kindly share the measured MRT inf for CC(=O)O[C@@]12CO[C@@H]1C[C@H](O)[C@@]1(C)C(=O)[C@H](O)C3=C(C)[C@@H](OC(=O)[C@H](OC(=O)CCC(=O)NCCCC[C@H](NC(=O)CC[C@@H](NC(=O)[C@H](C)NC(=O)/C=C/c4ccc(F)cc4Cl)C(N)=O)C(=O)O)[C@@H](NC(=O)OC(C)(C)C)c4ccccc4)C[C@@](O)([C@@H](OC(=O)c4ccccc4)[C@H]21)C3(C)C ?
15.7

* * *

# experiment.notes: Half life in male rat at 4 mg/kg,iv measured upto 24 hrs
# Type: ADME, organism-based
# protocol.conditions: in vivo
property.label: half-life (min)
Give the quantity in min, number only.

Would you kindly share the measured half-life for CC(=O)O[C@@]12CO[C@@H]1C[C@H](O)[C@@]1(C)C(=O)[C@H](O)C3=C(C)[C@@H](OC(=O)[C@H](OC(=O)CCC(=O)NCCCC[C@H](NC(=O)CC[C@@H](NC(=O)[C@H](C)NC(=O)/C=C/c4ccc(F)cc4Cl)C(N)=O)C(=O)O)[C@@H](NC(=O)OC(C)(C)C)c4ccccc4)C[C@@](O)([C@@H](OC(=O)c4ccccc4)[C@H]21)C3(C)C ?
10.7

* * *

# experiment.notes: Cmax in male Beagle dog at 1 mg/kg,iv measured upto 24 hrs
# Format: ADME, organism-based, Canis lupus familiaris
# Design: dose 1 mg/kg, time < 24 hrs, route iv
# protocol.conditions: in vivo
property.label: Cmax (ng/mL)
Give the quantity in ng/mL, number only.

Would you kindly share the measured Cmax for CC(=O)O[C@@]12CO[C@@H]1C[C@H](O)[C@@]1(C)C(=O)[C@H](O)C3=C(C)[C@@H](OC(=O)[C@H](OC(=O)CCC(=O)NCCCC[C@H](NC(=O)CC[C@@H](NC(=O)[C@H](C)NC(=O)/C=C/c4ccc(F)cc4Cl)C(N)=O)C(=O)O)[C@@H](NC(=O)OC(C)(C)C)c4ccccc4)C[C@@](O)([C@@H](OC(=O)c4ccccc4)[C@H]21)C3(C)C ?
3740

* * *

# experiment.notes: Half life in Beagle dog at 1 mg/kg,iv measured upto 24 hrs
# Assay type: ADME, organism-based, Canis lupus familiaris
# protocol.conditions: in vivo
property.label: half-life

Would you kindly share the measured half-life for CC(=O)O[C@@]12CO[C@@H]1C[C@H](O)[C@@]1(C)C(=O)[C@H](O)C3=C(C)[C@@H](OC(=O)[C@H](OC(=O)CCC(=O)NCCCC[C@H](NC(=O)CC[C@@H](NC(=O)[C@H](C)NC(=O)/C=C/c4ccc(F)cc4Cl)C(N)=O)C(=O)O)[C@@H](NC(=O)OC(C)(C)C)c4ccccc4)C[C@@](O)([C@@H](OC(=O)c4ccccc4)[C@H]21)C3(C)C ?
21.3 min

* * *

# experiment.notes: MRT in mouse plasma implanted with mouse 4T1 cells at 10 mg/kg,iv measured upto 72 hrs
# Format: ADME, organism-based
property.label: MRT
A complete answer gives the number and then names the unit.

Would you kindly share the measured MRT for CC(=O)O[C@@]12CO[C@@H]1C[C@H](O)[C@@]1(C)C(=O)[C@H](O)C3=C(C)[C@@H](OC(=O)[C@H](OC(=O)CCC(=O)NCCCC[C@H](NC(=O)CC[C@@H](NC(=O)[C@H](C)NC(=O)/C=C/c4ccc(F)cc4Cl)C(N)=O)C(=O)O)[C@@H](NC(=O)OC(C)(C)C)c4ccccc4)C[C@@](O)([C@@H](OC(=O)c4ccccc4)[C@H]21)C3(C)C ?
27 min

* * *

# experiment.notes: Clearance in female rat at 4 mg/kg,iv measured upto 24 hrs
# Type: ADME, organism-based
# protocol.conditions: in vivo
property.label: clearance (mL/min/kg)
Give the quantity in mL/min/kg, number only.

Would you kindly share the measured clearance for CC(=O)O[C@@]12CO[C@@H]1C[C@H](O)[C@@]1(C)C(=O)[C@H](O)C3=C(C)[C@@H](OC(=O)[C@H](OC(=O)CCC(=O)NCCCC[C@H](NC(=O)CC[C@@H](NC(=O)[C@H](C)NC(=O)/C=C/c4ccc(F)cc4Cl)C(N)=O)C(=O)O)[C@@H](NC(=O)OC(C)(C)C)c4ccccc4)C[C@@](O)([C@@H](OC(=O)c4ccccc4)[C@H]21)C3(C)C ?
5.13
